- Tested on: CEM cells HIV-1 protection, formazan growth assay
- Test Protocol: NCI AIDS Antiviral Assay
- Condition Description: measured here: growth of uninfected CEM cells
Property Name: IC50 (µM)

compound=Cc1ccc(C=C(C(=O)O)C(=O)O)cc1 property_name=IC50 comparator=> measured_result=1200
compound="O=C1CC2(CCC(O)(c3ccc(Cl)cc3)C(C(=O)c3ccc(Cl)cc3)C2)C(=O)c2ccccc2N1 (stereo unspecified)" property_name=IC50 comparator== measured_result=67.6
compound="COc1ccc(C(=O)CC(c2ccc(OC)c(OC)c2)c2c(O)c3ccccc3oc2=O)cc1OC (stereo unspecified)" property_name=IC50 comparator== measured_result=117
compound=CN(C)CCCOCCn1c2c(c3ccccc31)CCCC2 property_name=IC50 comparator== measured_result=32.4
compound=CSc1ccc2nncc(SC)c2c1 property_name=IC50 comparator== measured_result=57.5
compound=COc1ccc(-c2ccc(CC(=O)O)cc2)cc1OC property_name=IC50 comparator=> measured_result=36.3
compound=O=C(c1ccccc1)c1nc2ccc(Cl)cc2c2c1Cc1ccccc1-2 property_name=IC50 comparator=> measured_result=2.95
compound=Cc1ccc(NC(=O)C(=O)CC(=O)c2ccccc2)cc1C property_name=IC50 comparator=> measured_result=4.9
compound=COc1cc2c(oc(=O)c3c4occc4cc(OC)c23)c2cccc(O)c12 property_name=IC50 comparator=> measured_result=1.45
compound=N#CC(C#N)=CN1C(=O)CNC1=S property_name=IC50 comparator=> measured_result=200
compound=COc1ccc(-n2sc3ncc(-c4ccccc4)cc3c2=O)cc1 property_name=IC50 comparator== measured_result=35.5
